Target: T1, AtTCP10-DBD DRH mutant (UniProt O82277 1-87, D31A;R32A;H33A)
T1 sequence: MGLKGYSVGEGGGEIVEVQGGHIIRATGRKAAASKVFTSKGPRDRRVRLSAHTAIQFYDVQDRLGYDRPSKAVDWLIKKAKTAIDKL
Assay: ITC
quantityKind: Kd (nM)
Record the value in nM, omitting the unit from your answer.

# input For the binder three-site class II DNA (dsDNA) DNA 1: ATGTGGTCCCCACT DNA 2: TAGTGGGGACCACA , report Kd.
# output 353
